Parameter: melting point. Scope: all listed entries.

// worked examples, melting point included
                                   molecule         metric         result
0  COC(=O)c1c(N(CCc2ccccc2F)C(C)=O)sc2c(Cl)c(O)ccc12  melting point  172 to 174 °C
1  COC(=O)c1c(N(Cc2ccccc2Cl)C(C)=O)sc2c(CN(C)C)c(O)ccc12 [Example 51]  melting point  132 to 136 °C
2  COC(=O)c1c(N(Cc2ccccc2C#N)C(C)=O)sc2c(CN(C)C)c(O)ccc12 [Example 60]  melting point  178 to 182 °C

Request: Tell me melting point reported for CCOC(=O)c1c(N(Cc2ccccc2)C(C)=O)sc2cc(O)ccc12 [Example 2]
Response: 146 to 148 °C

Request: Tell me melting point reported for "CCOC(=O)c1c(N(Cc2ccc(C)cc2)C(C)=O)sc2c(Cl)c(O)ccc12"
Response: 170 to 172 °C

Request: Tell me melting point reported for COC(=O)c1c(N(Cc2ccccc2F)C(C)=O)sc2cc(O)ccc12 [Example 24]
Response: 165 to 167 °C

Request: Tell me melting point reported for CNC(=O)c1c(N(Cc2ccccc2F)C(C)=O)sc2cc(O)ccc12 [Example 76]
Response: 105 to 112 °C

Request: Tell me melting point reported for "COC(=O)c1c(N(Cc2ccccc2C#N)C(C)=O)sc2c(Cl)c(O)ccc12"
Response: 204 to 208 °C

Request: Tell me melting point reported for CNC(=O)c1c(N(Cc2ccc(F)cc2F)C(C)=O)sc2c(Cl)c(O)ccc12 [Example 78]
Response: 125 to 130 °C

Request: Tell me melting point reported for "COC(=O)c1c(N(Cc2ccccc2C(F)(F)F)C(C)=O)sc2cc(O)ccc12"
Response: 165 to 169 °C

Request: Tell me melting point reported for COC(=O)c1c(N(Cc2ccccc2)C(C)=O)sc2cc(O)ccc12 [Example 4]
Response: 165 to 167 °C

Request: Tell me melting point reported for COC(=O)c1c(N(Cc2ccc(F)cc2F)C(C)=O)sc2cc(O)ccc12 [Example 30]
Response: 178 to 180 °C

Request: Tell me melting point reported for "COC(=O)c1c(N(Cc2cccc(F)c2)C(C)=O)sc2cc(O)ccc12"
Response: 145 to 150 °C

Request: Tell me melting point reported for "CC(=O)N(Cc1ccccc1)c1sc2c(Cl)c(O)ccc2c1C#N"
Response: 176 to 178 °C

Request: Tell me melting point reported for "CCOC(=O)c1c(N(Cc2ccc(Cl)cc2)C(C)=O)sc2c(Cl)c(O)ccc12"
Response: 174 to 176 °C

Request: Tell me melting point reported for "COC(=O)c1c(N(Cc2ccccc2C)C(C)=O)sc2c(Cl)c(O)ccc12"
Response: 182 to 184 °C

Request: Tell me melting point reported for COC(=O)c1c(N(Cc2ccc(F)cc2)C(C)=O)sc2c(Cl)c(O)ccc12 [Example 27]
Response: 233 to 235 °C
